molecular target: CYP2D6 (Homo sapiens); experiment: in vitro; details: % Inhibition (set 2)
Sequence (P10635 whole entry): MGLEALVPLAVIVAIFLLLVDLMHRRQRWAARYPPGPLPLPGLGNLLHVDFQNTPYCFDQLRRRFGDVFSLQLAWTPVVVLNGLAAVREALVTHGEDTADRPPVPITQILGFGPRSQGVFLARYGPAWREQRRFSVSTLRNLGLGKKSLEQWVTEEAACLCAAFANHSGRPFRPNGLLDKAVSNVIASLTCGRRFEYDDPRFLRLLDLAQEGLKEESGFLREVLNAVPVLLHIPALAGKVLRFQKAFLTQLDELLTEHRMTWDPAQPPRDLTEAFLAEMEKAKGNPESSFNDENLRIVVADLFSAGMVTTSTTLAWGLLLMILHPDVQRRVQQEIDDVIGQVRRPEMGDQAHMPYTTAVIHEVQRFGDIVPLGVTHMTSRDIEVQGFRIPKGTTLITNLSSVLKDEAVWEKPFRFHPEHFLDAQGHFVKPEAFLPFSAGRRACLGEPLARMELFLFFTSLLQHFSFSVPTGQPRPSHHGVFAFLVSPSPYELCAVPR
attribute measured: inhibition at 0.05 μM (%)

CC(C)(CCCCCCCCCCCCC(C)(C)C(=O)O)C(=O)O
0
CC(C)(CCCCCCCCCCC(C)(C)CC(=O)O)CC(=O)O
0

###

biological target: CYP2B6 (Homo sapiens); test: in vitro; settings: % Inhibition (set 1)
Sequence (P20813 whole entry): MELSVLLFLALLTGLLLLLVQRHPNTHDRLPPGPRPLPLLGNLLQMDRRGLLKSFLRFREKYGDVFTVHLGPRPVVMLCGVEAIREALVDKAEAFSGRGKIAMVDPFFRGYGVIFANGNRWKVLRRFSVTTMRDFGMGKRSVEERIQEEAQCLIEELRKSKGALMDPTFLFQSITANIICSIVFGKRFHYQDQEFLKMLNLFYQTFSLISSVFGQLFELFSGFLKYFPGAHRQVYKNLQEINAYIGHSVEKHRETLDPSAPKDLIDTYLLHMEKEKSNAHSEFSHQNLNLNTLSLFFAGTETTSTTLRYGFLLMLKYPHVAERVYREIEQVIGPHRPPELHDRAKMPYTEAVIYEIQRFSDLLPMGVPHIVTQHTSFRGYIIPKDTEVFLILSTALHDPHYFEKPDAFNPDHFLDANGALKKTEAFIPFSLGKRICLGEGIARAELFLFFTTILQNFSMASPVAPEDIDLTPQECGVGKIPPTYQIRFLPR
attribute measured: inhibition at 33.33 μM (%)

A. CC(C)(CCCCCCCCCCC(C)(C)CC(=O)O)CC(=O)O
B. CC(C)(CCCCCCCCCCCCC(C)(C)C(=O)O)C(=O)O
Sorting by inhibition at 33.33 μM in descending order, would A or B appear first? Give the chosen item's label as your response. B

###

molecular target: CYP2C19 (Homo sapiens); assay: in vitro; conditions: % Inhibition (set 1)
attribute measured: inhibition at 1.23 μM (%)

A. CC(C)(CCCCCCCCCCCCC(C)(C)C(=O)O)C(=O)O
B. CC(C)(CCCCCCCCCCC(C)(C)CC(=O)O)CC(=O)O
Input pair: A , B . Output: entry with lower inhibition at 1.23 μM. Your answer should be the label of the entry you select. A
(A: 0%, B: 4%)

###

Target: CYP2C8 (Homo sapiens, UniProt P10632)
Sequence (P10632 1-490): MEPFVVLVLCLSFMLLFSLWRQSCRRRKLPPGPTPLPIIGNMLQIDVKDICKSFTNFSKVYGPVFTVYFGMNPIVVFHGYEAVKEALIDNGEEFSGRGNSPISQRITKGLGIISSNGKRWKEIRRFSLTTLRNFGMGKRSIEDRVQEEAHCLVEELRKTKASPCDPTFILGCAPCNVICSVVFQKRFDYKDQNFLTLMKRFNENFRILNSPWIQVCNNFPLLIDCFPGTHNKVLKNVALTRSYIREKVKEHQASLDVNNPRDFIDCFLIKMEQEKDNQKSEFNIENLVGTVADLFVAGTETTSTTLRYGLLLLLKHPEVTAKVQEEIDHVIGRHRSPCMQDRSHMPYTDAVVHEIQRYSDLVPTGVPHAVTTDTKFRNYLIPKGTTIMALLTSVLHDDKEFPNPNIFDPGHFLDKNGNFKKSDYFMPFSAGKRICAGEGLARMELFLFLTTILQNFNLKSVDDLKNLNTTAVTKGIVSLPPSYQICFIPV
attribute measured: IC50 (nM)
Please state the figure in nM; there is no need to write the unit.

Value lookup for IC50; key = O=c1c(O)c(-c2ccc(O)c(O)c2)oc2cc(O)cc(O)c12 [Quercetin, reference compound] 1400

###

target: CYP2C9 (Homo sapiens, UniProt P11712); assay: Fluorimetric CYP inhibition assay, CYP2C9-MFC; conditions: human, % Inhibition (set 1), positive control 0.06 μM; MFC
Sequence (P11712 whole entry): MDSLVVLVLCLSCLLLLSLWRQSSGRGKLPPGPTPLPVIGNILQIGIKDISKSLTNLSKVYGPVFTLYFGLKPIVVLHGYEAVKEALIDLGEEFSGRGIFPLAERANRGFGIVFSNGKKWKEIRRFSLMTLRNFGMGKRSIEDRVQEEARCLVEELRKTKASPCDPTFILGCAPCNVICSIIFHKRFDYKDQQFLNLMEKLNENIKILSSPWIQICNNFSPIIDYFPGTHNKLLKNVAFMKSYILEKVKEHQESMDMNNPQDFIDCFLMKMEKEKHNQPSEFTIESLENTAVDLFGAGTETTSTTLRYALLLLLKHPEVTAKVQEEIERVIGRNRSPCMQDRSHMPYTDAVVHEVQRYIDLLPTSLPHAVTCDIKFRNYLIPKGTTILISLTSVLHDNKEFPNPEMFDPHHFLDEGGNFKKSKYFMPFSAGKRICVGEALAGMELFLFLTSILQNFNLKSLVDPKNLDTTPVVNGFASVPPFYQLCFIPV
attribute measured: inhibition at 0.06 μM (%)
Write the value in % as a bare number.

State its inhibition at 0.06 μM on CYP2C9 (Homo sapiens, UniProt P11712): Nc1ccc(S(=O)(=O)Nc2ccnn2-c2ccccc2)cc1 [Sulfaphenazole] 11

###

target: CYP2C9 (Homo sapiens, UniProt P11712); experiment: in vitro; details: % Inhibition (set 2)
attribute measured: inhibition at 11.11 μM (%)

P. CC(C)(CCCCCCCCCCCCC(C)(C)C(=O)O)C(=O)O [M16αα]
Q. CC(C)(CCCCCCCCCCC(C)(C)CC(=O)O)CC(=O)O [M16ββ]
Response body: label of entry with the larger inhibition at 11.11 μM; valid values P , Q . Reply with the label of the item you choose. Q
(Q: 18%, P: 7%)

###

target: CYP2C9 (Homo sapiens, UniProt P11712); experiment: Fluorimetric CYP inhibition assay, CYP2C9-MFC; conditions: human, % Inhibition (set 2), positive control 0.06 μM; MFC
attribute measured: inhibition at 0.06 μM (%)
Write the number in % without appending the unit.

Endpoint output: inhibition at 0.06 μM of Nc1ccc(S(=O)(=O)Nc2ccnn2-c2ccccc2)cc1 . Value? 6

###

Target: CYP2C8 (Homo sapiens)
Sequence (P10632 1-490): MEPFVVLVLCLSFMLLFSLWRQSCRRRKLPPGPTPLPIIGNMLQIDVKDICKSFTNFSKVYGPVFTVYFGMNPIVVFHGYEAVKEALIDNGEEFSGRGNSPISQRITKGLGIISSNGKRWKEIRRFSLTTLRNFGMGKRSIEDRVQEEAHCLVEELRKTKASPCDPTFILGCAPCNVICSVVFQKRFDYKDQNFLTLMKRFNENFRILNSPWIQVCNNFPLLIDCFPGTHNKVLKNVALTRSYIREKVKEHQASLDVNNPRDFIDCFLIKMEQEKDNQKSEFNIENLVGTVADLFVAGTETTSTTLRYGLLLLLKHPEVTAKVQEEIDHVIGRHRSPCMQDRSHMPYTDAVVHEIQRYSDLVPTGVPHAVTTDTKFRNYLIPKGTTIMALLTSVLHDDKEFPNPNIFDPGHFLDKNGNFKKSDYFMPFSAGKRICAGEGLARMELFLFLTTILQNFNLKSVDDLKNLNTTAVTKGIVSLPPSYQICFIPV
Experiment: in vitro
Settings: % Inhibition (set 2)
attribute measured: inhibition at 100 μM (%)

1. CC(C)(CCCCCCCCCCC(C)(C)CC(=O)O)CC(=O)O
2. O=c1c(O)c(-c2ccc(O)c(O)c2)oc2cc(O)cc(O)c12 [Quercetin, reference compound]
// which entry has the larger inhibition at 100 μM value, 1 or 2 ? Answer by quoting the chosen item's label. 2

###

molecular target: CYP2C8 (Homo sapiens, UniProt P10632); assay: in vitro; settings: % Inhibition (set 1)
attribute measured: inhibition at 3.7 μM (%)

CC(C)(CCCCCCCCCCCCC(C)(C)C(=O)O)C(=O)O
4

1. O=c1c(O)c(-c2ccc(O)c(O)c2)oc2cc(O)cc(O)c12 [Quercetin, reference compound]
2. CC(C)(CCCCCCCCCCC(C)(C)CC(=O)O)CC(=O)O
Return label of the item with the larger inhibition at 3.7 μM. Candidates: 1 , 2 . Reply with the label of the item you choose. 1
(1: 88%, 2: 7%)

###

biological target: CYP2C8 (Homo sapiens, UniProt P10632); experiment: in vitro; conditions: % Inhibition (set 2)
attribute measured: inhibition at 33.33 μM (%)

O=c1c(O)c(-c2ccc(O)c(O)c2)oc2cc(O)cc(O)c12 [Quercetin, reference compound]
100

A. CC(C)(CCCCCCCCCCC(C)(C)CC(=O)O)CC(=O)O [M16ββ]
B. CC(C)(CCCCCCCCCCCCC(C)(C)C(=O)O)C(=O)O [M16αα]
Two entries are listed, A and B . Which one carries the higher inhibition at 33.33 μM? Could you answer with the label of the item you picked? A

###

target: CYP1A2 (Homo sapiens, UniProt P05177); assay: in vitro; settings: % Inhibition (set 1)
Sequence (P05177 whole entry): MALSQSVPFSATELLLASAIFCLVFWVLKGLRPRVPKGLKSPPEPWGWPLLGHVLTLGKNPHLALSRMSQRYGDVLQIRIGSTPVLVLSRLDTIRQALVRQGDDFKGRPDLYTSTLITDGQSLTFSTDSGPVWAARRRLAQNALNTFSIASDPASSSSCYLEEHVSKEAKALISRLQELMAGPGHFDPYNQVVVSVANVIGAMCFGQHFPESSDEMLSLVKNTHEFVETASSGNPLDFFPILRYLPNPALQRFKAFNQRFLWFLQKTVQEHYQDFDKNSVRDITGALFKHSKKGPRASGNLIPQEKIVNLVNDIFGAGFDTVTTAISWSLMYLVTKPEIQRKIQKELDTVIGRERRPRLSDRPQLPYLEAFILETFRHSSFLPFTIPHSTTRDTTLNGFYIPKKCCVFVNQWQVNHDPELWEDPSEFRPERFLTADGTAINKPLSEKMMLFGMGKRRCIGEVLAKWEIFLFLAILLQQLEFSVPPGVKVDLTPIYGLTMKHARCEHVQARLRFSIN
attribute measured: inhibition at 100 μM (%)

I. CC(C)(CCCCCCCCCCC(C)(C)CC(=O)O)CC(=O)O [M16ββ]
II. CC(C)(CCCCCCCCCCCCC(C)(C)C(=O)O)C(=O)O [M16αα]
When I and II are compared, which has the higher number for inhibition at 100 μM? Respond using the label that marks the chosen record. II
(II: 8%, I: 1%)

###

molecular target: CYP2C8 (Homo sapiens, UniProt P10632); test: in vitro; conditions: % Inhibition (set 1)
attribute measured: inhibition at 0.41 μM (%)

1. CC(C)(CCCCCCCCCCC(C)(C)CC(=O)O)CC(=O)O [M16ββ]
2. O=c1c(O)c(-c2ccc(O)c(O)c2)oc2cc(O)cc(O)c12 [Quercetin, reference compound]
3. CC(C)(CCCCCCCCCCCCC(C)(C)C(=O)O)C(=O)O [M16αα]
Give the descending inhibition at 0.41 μM ranking for the 3 compounds listed above. Present the labels in the sequence the task asks for. 2, 1, 3

###

molecular target: CYP2C19 (Homo sapiens); assay: in vitro; details: % Inhibition (set 2)
attribute measured: inhibition at 1.23 μM (%)

1. CC(C)(CCCCCCCCCCCCC(C)(C)C(=O)O)C(=O)O [M16αα]
2. CC(C)(CCCCCCCCCCC(C)(C)CC(=O)O)CC(=O)O [M16ββ]
Which has the smaller recorded inhibition at 1.23 μM, 1 or 2 ? Pick one; state its label. 2
(2: 0%, 1: 4%)

###

molecular target: CYP2C9 (Homo sapiens, UniProt P11712); assay: in vitro; settings: % Inhibition (set 2)
attribute measured: inhibition at 0.05 μM (%)

CC(C)(CCCCCCCCCCC(C)(C)CC(=O)O)CC(=O)O [M16ββ]
0
CC(C)(CCCCCCCCCCCCC(C)(C)C(=O)O)C(=O)O [M16αα]
0

###

biological target: CYP2C19 (Homo sapiens, UniProt P33261); assay: in vitro; details: % Inhibition (set 1)
Sequence (P33261 whole entry): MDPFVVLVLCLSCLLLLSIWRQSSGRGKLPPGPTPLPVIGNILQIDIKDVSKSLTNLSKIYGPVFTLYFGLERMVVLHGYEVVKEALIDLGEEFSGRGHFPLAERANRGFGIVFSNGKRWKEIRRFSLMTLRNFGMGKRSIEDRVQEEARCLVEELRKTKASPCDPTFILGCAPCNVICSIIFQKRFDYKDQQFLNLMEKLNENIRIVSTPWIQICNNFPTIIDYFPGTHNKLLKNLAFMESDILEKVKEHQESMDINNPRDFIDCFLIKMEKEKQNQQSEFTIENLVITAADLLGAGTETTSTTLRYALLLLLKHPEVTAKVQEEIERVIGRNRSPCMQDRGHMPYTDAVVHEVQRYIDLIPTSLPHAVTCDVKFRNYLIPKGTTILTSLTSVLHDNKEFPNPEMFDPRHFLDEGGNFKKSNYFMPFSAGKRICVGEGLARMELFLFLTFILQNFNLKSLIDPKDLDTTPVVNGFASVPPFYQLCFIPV
attribute measured: inhibition at 0.05 μM (%)

CC(C)(CCCCCCCCCCCCC(C)(C)C(=O)O)C(=O)O
0
CC(C)(CCCCCCCCCCC(C)(C)CC(=O)O)CC(=O)O
0
